molecular target: DP receptor (Homo sapiens (Human)); test: DP inhibitory activity in human platelets (PGD2-induced cAMP increase in platelet rich plasma, HTRF); settings: IC50 of PGD2 (300 nM)-induced cAMP increase, read-out: PRP
Sequence (Q13258 whole entry): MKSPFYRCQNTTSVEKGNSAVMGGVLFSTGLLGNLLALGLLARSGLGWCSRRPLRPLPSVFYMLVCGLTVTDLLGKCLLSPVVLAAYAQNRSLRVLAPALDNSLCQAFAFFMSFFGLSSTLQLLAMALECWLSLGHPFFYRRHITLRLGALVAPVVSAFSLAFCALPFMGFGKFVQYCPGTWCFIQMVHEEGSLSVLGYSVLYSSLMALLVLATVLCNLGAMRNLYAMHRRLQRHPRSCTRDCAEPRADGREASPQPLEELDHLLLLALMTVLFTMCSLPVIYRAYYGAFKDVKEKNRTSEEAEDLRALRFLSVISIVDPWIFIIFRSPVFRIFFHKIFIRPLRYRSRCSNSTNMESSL
Threshold-based label: IC50 under 100 nM gives Met, IC50 not under 100 nM gives Not met.

## Input Report whether reported IC50 is lower than 100 nM (strictly) for CC(C)Oc1ccc(S(=O)(=O)N2C[C@H](n3nc(CC(=O)O)c4ccc(F)cc43)C[C@H]2C#N)cc1 [Compound I-7]
## Output Met

## Input Would you kindly verify if IC50 of CCOc1ccc(S(=O)(=O)N2C[C@@H](C)[C@@H](n3nc(C4(C(=O)O)CC4)c4ccccc43)C2)cc1 [Compound I-336] is strictly less than 100 nM?
## Output Not met

## Input State whether 100 nM exceeds IC50 recorded for CCOc1ccc(S(=O)(=O)N2C[C@H](n3nc(CC(=O)O)c4ccccc43)CC23COC3)cc1 [Compound I-353] .
## Output Met

## Input Lab note: IC50 threshold 100 nM. Does this molecule come in strictly under it? CC(C)Oc1ccc(S(=O)(=O)N2C[C@H](n3nc(CC(=O)O)c4ccc(F)cc43)C[C@@H]2Cn2cccn2)cc1 [Compound I-21]
## Output Not met

## Input Problem: For the molecule CCOc1ccc(S(=O)(=O)N2C[C@@H](C)[C@@H](n3nc(CC(=O)O)c4c(F)cccc43)C2)cc1 [Compound I-150] , is IC50 under 100 nM?
## Output Met

## Input Consider the molecule CC(C)Oc1ccc(S(=O)(=O)N2C[C@H](n3nc(CC(=O)O)c4ccc(F)cc43)[C@@](C)(F)C2)cc1 (racemic) [Compound I-85] . Is its IC50 strictly less than 100 nM?
## Output Not met

## Input Take the molecule CCOc1ccc(S(=O)(=O)N2C[C@@H](C)[C@@H](n3nc(C(C)C(=O)O)c4ccccc43)C2)cc1 (stereo partly shown) [Compound I-284] and say whether its IC50 is less than 100 nM.
## Output Not met

---

target: Human DP1 receptor (Homo sapiens (Human), UniProt Q13258); assay: Human DP1 inhibitory activity in DP1-expressing cell (PGD2-induced cAMP); format: cell-based; conditions: category of cAMP IC50, human DP1 receptor expressing Jurkut cell
pIC50: −log10 of the molar value.
measure: pIC50

## Input Identify pIC50 associated with the compound CCOc1ccc(S(=O)(=O)N2C[C@H](n3nc(CC(=O)O)c4ccccc43)C[C@@H]2CF)cc1
## Output > 7.00

## Input Supply recorded pIC50 for CCc1ccc(S(=O)(=O)N2C[C@@H](C)[C@@H](n3nc(CC(=O)O)c4ccc(Cl)cc43)C2)cc1 here.
## Output > 7.00

## Input Output measured pIC50 for this item: CCOc1ccc(S(=O)(=O)N2C[C@@H](C)[C@@H](n3nc(CC(=O)O)c4ccccc43)C2)cc1
## Output > 7.00

## Input Fill in pIC50 for record C[C@@H]1CN(S(=O)(=O)c2ccc(OC(F)F)cc2)C[C@@H]1n1nc(CC(=O)O)c2ccccc21
## Output > 7.00

---

Provide the reported IC50 of each item.
biological target: Human DP1 receptor (Homo sapiens (Human), UniProt Q13258); test: Human DP1 inhibitory activity in DP1-expressing cell (PGD2-induced cAMP); type: cell-based; settings: category of cAMP IC50, human DP1 receptor expressing Jurkut cell

## Input Please look at this compound and report its IC50: CC(C)Oc1ccc(S(=O)(=O)N2C[C@@H](CC(F)F)[C@@H](n3nc(CC(=O)O)c4ccc(F)cc43)C2)cc1
## Output 100 to 5000 nM

## Input # return recorded IC50 for input CC(C)Oc1ccc(S(=O)(=O)N2C[C@@H](C)[C@H](n3nc(CC(=O)O)c4cc(Br)c(F)cc43)C2)cc1
## Output < 100 nM

## Input Read off the recorded IC50 for CC(C)Oc1ccc(S(=O)(=O)N2C[C@H](n3nc(CC(=O)O)c4ccc(F)cc43)C[C@H]2c2ccccn2)cc1 [Compound I-357]
## Output 100 to 5000 nM

## Input State its IC50 for this compound: CC(C)Oc1ccc(S(=O)(=O)N2C[C@H](n3nc(CC(=O)O)c4cc(Cl)ccc43)C[C@H]2C)cc1
## Output 100 to 5000 nM

## Input Please look at this compound and report its IC50: C=C[C@@H]1CN(S(=O)(=O)c2ccc(OC(C)C)cc2)C[C@@H]1n1nc(CC(=O)O)c2ccc(F)cc21
## Output < 100 nM

## Input Write down IC50 measured for item CC(C)Oc1ccc(S(=O)(=O)N2C[C@H](n3nc(CC(=O)O)c4ccc(F)cc43)C[C@H]2C#N)cc1
## Output < 100 nM

## Input Please supply the value of reported IC50 for the item C[C@@H]1CN(S(=O)(=O)c2ccccc2Cl)C[C@@H]1n1nc(CC(=O)O)c2ccc(F)cc21
## Output 100 to 5000 nM

## Input Report IC50, nothing else, for this compound: CC(C)Oc1ccc(S(=O)(=O)N2C[C@H](C)[C@@H](n3nc(CC(=O)O)c4ccc(F)cc43)C2)cc1
## Output < 100 nM

## Input Check the records and state IC50 for CC(C)Oc1ccc(S(=O)(=O)N2C[C@@H](C)[C@@H](n3nc(CC(=O)O)c4ccc(F)cc43)C2)cn1 [Compound I-123]
## Output < 100 nM

## Input Determine its reported IC50: CCOc1ccc(S(=O)(=O)N2C[C@@H](C)[C@@H](n3nc(CC(=O)O)c4ccccc43)C2)c(COC)c1
## Output 100 to 5000 nM

## Input Give reported IC50 value for CCOc1ccc(S(=O)(=O)N2C[C@@H](C)[C@@H](n3nc(C(O)C(=O)O)c4ccccc43)C2)cc1 (single isomer, unassigned) [Compound I-306]
## Output 100 to 5000 nM

## Input Name the recorded IC50 of the item CC(C)Oc1ccc(S(=O)(=O)N2C[C@@H](C)[C@@H](n3nc(CC(=O)O)c4cc5c(cc43)OCO5)C2)cc1 in your answer.
## Output < 100 nM

## Input Quick one: give measured IC50 for CCOc1ccc(S(=O)(=O)N2C[C@@H](C)[C@@H](n3nc(CC(=O)O)c4ccc(C(F)(F)F)cc43)C2)cn1
## Output < 100 nM

## Input Provide only the value of recorded IC50 for CC(C)Oc1ccc(S(=O)(=O)N2C[C@H](n3nc(CC(=O)O)c4ccccc43)C[C@@H]2C)cc1
## Output < 100 nM

---

molecular target: CRTH2 (Homo sapiens (Human)); experiment: CRTH2 receptor binding inhibitory activity ([3H]-PGD2 displacement, membranes of CRTH2-expressing K562 cell); conditions: [3H]-PGD2 displacement, membrane of CRTH2-expressing K562 cell; read-out: Ki
Sequence (Q9Y5Y4 whole entry): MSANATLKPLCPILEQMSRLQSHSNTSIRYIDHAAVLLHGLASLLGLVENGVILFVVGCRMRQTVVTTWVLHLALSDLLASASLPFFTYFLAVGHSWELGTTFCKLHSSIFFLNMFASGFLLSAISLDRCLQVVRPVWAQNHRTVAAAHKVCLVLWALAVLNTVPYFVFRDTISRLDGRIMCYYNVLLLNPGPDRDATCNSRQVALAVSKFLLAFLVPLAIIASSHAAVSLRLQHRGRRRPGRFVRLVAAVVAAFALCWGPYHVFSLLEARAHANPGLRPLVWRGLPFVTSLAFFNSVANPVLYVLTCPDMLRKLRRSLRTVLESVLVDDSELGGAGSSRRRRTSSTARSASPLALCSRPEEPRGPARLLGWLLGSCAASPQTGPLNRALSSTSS
// boundary case: Ki equal to 0.06 µM maps to 0; strictly smaller maps to 1

## Input For CC(C)Oc1ccc(S(=O)(=O)N2CC[C@H](n3nc(CC(=O)O)c4ccc(F)cc43)[C@@H](C)C2)cc1 , is the recorded Ki below the cut-off of 0.06 µM?
## Output 0

## Input Identify whether the compound C[C@@H]1CN(S(=O)(=O)c2cccc(Cl)c2)C[C@@H]1n1nc(CC(=O)O)c2ccc(F)cc21 records Ki below 0.06 µM.
## Output 1

## Input Problem: For the compound C[C@@H]1CN(S(=O)(=O)c2cc3ccccc3s2)C[C@@H]1n1nc(CC(=O)O)c2ccccc21 , is Ki under 0.06 µM?
## Output 1

## Input Check if Ki falls below 0.06 µM for CC(C)Oc1ccc(S(=O)(=O)N2C[C@@H](C)[C@@H](n3nc(CC(=O)NC#N)c4ccc(F)cc43)C2)cc1 .
## Output 1

## Input Consider the compound CCOc1ccc(S(=O)(=O)N2C[C@@H](C)[C@@H](n3nc(CC(=O)O)c4ccccc43)C2)c(CCCNC(C)=O)c1 . Is its Ki strictly less than 0.06 µM?
## Output 1

## Input Item CC(C)Oc1ccc(S(=O)(=O)N2C[C@@H](C)[C@@H](n3nc(CC(=O)O)c4ccc(F)cc43)C2)cn1 [Compound I-57] : Ki beneath 0.06 µM, strictly?
## Output 1

## Input Given CC(C)Oc1ccc(S(=O)(=O)N2C[C@@H](C)[C@@H](n3nc(CC(=O)O)c4cccc(F)c43)C2)cc1 , is recorded Ki strictly lower than 0.06 µM?
## Output 1

## Input Consider the compound CC(C)Oc1ccc(S(=O)(=O)N2C[C@H](n3nc(CC(=O)O)c4ccc(F)cc43)C[C@@H]2c2ncc[nH]2)cc1 . Is its Ki strictly less than 0.06 µM?
## Output 0

## Input Determine if CCOc1ccc(S(=O)(=O)N2C[C@@H](C)[C@@H](n3nc(CC(=O)O)c4c(F)cccc43)C2)cc1 shows Ki strictly lower than 0.06 µM.
## Output 0

## Input Lab note: Ki threshold 0.06 µM. Does this compound come in strictly under it? CC1Cc2cc(S(=O)(=O)N3C[C@@H](C)[C@@H](n4nc(CC(=O)O)c5ccccc54)C3)ccc2O1 (some centres unmarked)
## Output 0

## Input Below 0.06 µM on Ki? Entry CC(C)Oc1ccc(S(=O)(=O)N2C[C@@H](C)[C@@H](n3cc(CC(=O)O)c4ccc(F)cc43)C2)cc1
## Output 1

## Input Quick check: Ki of CC(C)Oc1ccc(S(=O)(=O)N2C[C@H](n3nc(CC(=O)O)c4cc(Cl)ccc43)C[C@H]2C)cc1 under 0.06 µM?
## Output 1

## Input # TODO verify Ki < 0.06 µM strictly for this compound: CCOc1ccc(S(=O)(=O)N2C[C@@H](C)[C@@H](n3nc(CC(=O)O)c4ccccc43)C2)c(CCCO)c1
## Output 1

## Input # TODO verify Ki < 0.06 µM strictly for this compound: CC(C)Oc1ccc(S(=O)(=O)N2C[C@H](n3nc(CC(=O)O)c4ccc(F)cc43)[C@@](C)(F)C2)cc1 (racemic)
## Output 1
